# Read-out: Cytochrome P450 3A7 (Homo sapiens) (UniProt P24462)
# Sequence (P24462 whole entry, looked up): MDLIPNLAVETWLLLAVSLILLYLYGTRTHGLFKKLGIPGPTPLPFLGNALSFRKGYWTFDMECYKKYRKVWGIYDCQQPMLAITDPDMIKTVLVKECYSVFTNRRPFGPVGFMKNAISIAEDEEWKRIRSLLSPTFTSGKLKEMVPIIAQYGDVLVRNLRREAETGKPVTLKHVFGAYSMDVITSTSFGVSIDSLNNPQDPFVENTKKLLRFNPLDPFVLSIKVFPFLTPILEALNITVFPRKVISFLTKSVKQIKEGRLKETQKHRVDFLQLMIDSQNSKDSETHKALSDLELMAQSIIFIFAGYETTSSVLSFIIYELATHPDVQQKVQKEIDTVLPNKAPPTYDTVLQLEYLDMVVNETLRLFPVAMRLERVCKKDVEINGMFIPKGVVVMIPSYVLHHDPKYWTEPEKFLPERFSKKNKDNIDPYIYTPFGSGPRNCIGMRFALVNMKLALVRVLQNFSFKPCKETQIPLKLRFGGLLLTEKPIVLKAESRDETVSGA
# ASSAY_NAME: LTEA_HepaRG_CYP3A7: Life Technologies and Expression Analysis (LTEA) Assay for CYP3A7 using HepaRG (AID 2283492)
# CONDITION_PARAMETERS: mRNA level, 48 h; actives raise or lower the signal
The source made the active and inactive calls. Rule for the calls: active = hit-call score of the fitted dose curve at least 0.9, where 1 is the maximum; inactive = score below 0.9.
Classes to choose from: true (1) = active, false (0) = inactive

CCCSP(=O)(OCC)Oc1ccc(Br)cc1Cl (centres undefined): false (0)
CCCCOC(=O)c1ccccc1C(=O)O: true (1)
CCCCSP(=O)(SCCCC)SCCCC: false (0)
CON=C(C(=O)OC)c1ccccc1CON=C(C)c1cccc(C(F)(F)F)c1: true (1)
CCOP(=O)(SC(C)CC)N1CCSC1=O (centres undefined): false (0)
CCc1cccc(CC)c1N(COC)C(=O)CCl: false (0)
CCOP(=S)(OCC)Oc1ccc2c(C)c(Cl)c(=O)oc2c1: false (0)
COP(=O)(OC)OC(Br)C(Cl)(Cl)Br (centres undefined): false (0)

Then there is this compound:
(Q) Call for entry Nc1c(Cl)cc([N+](=O)[O-])cc1Cl :
(A) true (1)

* * *

# ASSAY_NAME: CCTE_Deisenroth_AIME_384WELL_CTox_Inactive: Cytotoxicity Assessment (CTOX) in CCTE's 384-well Estrogen Receptor Transactivation Assay without AIME metabolic competence (metabolism negative), Deisenroth Lab (AID 2284039);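 note: cell viability via live-cell protease substrate cleaved to fluorescent probe; cells exposed 24 h to medium preincubated 2 h with alginate-water beads without S9; loss of fluorescence signal means loss of viability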
Inconclusive results are not listed. Active and inactive are the calls of the source. Rule for the calls: active = hit-call score of the fitted dose curve at least 0.9, where 1 is the maximum; inconclusive = response in the unintended direction; inactive = score below 0.9.
Classes to choose from: true (1) for active, false (0) for inactive

// below: answered compounds
Nc1nc(N)nc(NC2CC2)n1: false (0)
CC1=NNC(=O)N(/N=C/c2cccnc2)C1: false (0)
O=C(O)c1cc(Oc2ccc(C(F)(F)F)cc2Cl)ccc1[N+](=O)[O-]: false (0)
CC(COc1ccc(Oc2ccccc2)cc1)Oc1ccccn1 (stereo not given): false (0)
CC1(C(=O)Nc2ccc(O)c(Cl)c2Cl)CCCCC1: false (0)
C#CCC1=C(C)C(OC(=O)C2C(C=C(C)C)C2(C)C)CC1=O (stereo not given): true (1)
CON=C(C(=O)OC)c1ccccc1CON=C(C)c1cccc(C(F)(F)F)c1: false (0)
CC(C)N(C(=O)SCC(Cl)=C(Cl)Cl)C(C)C: false (0)

(Q) Call for entry CSc1nc(NC(C)C)nc(NC(C)C)n1 :
(A) false (0)

(Q) Call for entry COP(=O)(NC(C)=O)SC (stereo not given) :
(A) false (0)

* * *

# Read-out: Thyroid Hormone Responsive (THRSP), THRSP (gene 7069)
# ASSAY_NAME: LTEA_HepaRG_THRSP: Life Technologies and Expression Analysis (LTEA) Assay for Thyroid Hormone Responsive (THRSP) using HepaRG (AID 2283536)
# CONDITION_PARAMETERS: mRNA level, 48 h; actives raise or lower the signal
Active and inactive are the calls of the source. How the source made its calls: active means hit-call score of the fitted dose curve at least 0.9, where 1 is the maximum; inactive means score below 0.9.
Classes to choose from: active, inactive

CSc1nc(NC(C)C)nc(NC(C)C)n1: active
CC(C)[C@H](C(=O)O[C@H](C#N)c1cccc(Oc2ccccc2)c1)c1ccc(Cl)cc1: inactive
CC1(C(=O)Nc2ccc(O)c(Cl)c2Cl)CCCCC1: inactive
COP(=O)(OC)OC(Br)C(Cl)(Cl)Br (stereo not given): inactive

Then there is this compound:
(Q) Call for entry CN(C)[C@@H]1C(=O)C(C(N)=O)=C(O)[C@@]2(O)C(=O)C3=C(O)c4c(O)cccc4[C@@](C)(O)[C@H]3[C@H](O)[C@@H]12 :
(A) inactive

* * *

# ASSAY_NAME: CCTE_Mundy_HCI_hNP1_Pro_ResponderAvgInten: CCTE's Proliferation Assay in human neuroprogenitor cells, Mundy Lab (AID 2284224)
Records with an inconclusive call do not appear. The source made the active and inactive calls. Rule for the calls: active = hit-call score of the fitted dose curve at least 0.9, where 1 is the maximum; inconclusive = response in the unintended direction; inactive = score below 0.9.
Classes to choose from: Y for active, N for inactive

// below: answered molecules
COP(=O)(OC)C(O)C(Cl)(Cl)Cl (centres undefined): Y
CN(C)[C@@H]1C(=O)C(C(N)=O)=C(O)[C@@]2(O)C(=O)C3=C(O)c4c(O)cccc4[C@@](C)(O)[C@H]3[C@H](O)[C@@H]12: Y
CCOP(=S)(OCC)Oc1cc(C)nc(C(C)C)n1: N

(Q) Call for entry O=[N+]([O-])c1cc(C(F)(F)F)c(Cl)c([N+](=O)[O-])c1Nc1ncc(C(F)(F)F)cc1Cl :
(A) Y

(Q) Call for entry CC[C@H](C)[C@H]1O[C@]2(C=C[C@@H]1C)C[C@@H]1C[C@@H](C/C=C(\C)[C@@H](O[C@H]3C[C@H](OC)[C@@H](O[C@H]4C[C@H](OC)[C@@H](NC)[C@H](C)O4)[C@H](C)O3)[C@@H](C)/C=C/C=C3\CO[C@@H]4[C@H](O)C(C)=C[C@@H](C(=O)O1)[C@]34O)O2 :
(A) N

(Q) Call for entry CSC1=N[C@@](C)(c2ccccc2)C(=O)N1Nc1ccccc1 :
(A) N

* * *

# ASSAY_NAME: CCTE_Mundy_HCI_hNP1_CellTiter: CCTE's Cell Titer-Glo 2 Assay in human neuroprogenitor cells for Viability, Mundy Lab (AID 2284241)
# Method: CCTE_Mundy_HCI_hNP1_CellTiter is a multiplexed, cell-based-readout assay that uses neural stem cells derived from a neuroepithelial cell lineage of WA09 embryonic cells with measurements taken at […] after chemical dosing in a microplate: 96-well plate.CCTE_Mundy_HCI_hNP1_CellTiter is one component of the CCTE_Mundy_HCI_hNP1_CellTiter assay. […]
Results filed as inconclusive are left out. Calls of active or inactive are those of the source. Rule for the calls: active = hit-call score of the fitted dose curve at least 0.9, where 1 is the maximum; inconclusive = response in the unintended direction; inactive = score below 0.9.
Classes to choose from: 1.0 = active, 0.0 = inactive

// below: answered compounds
CSC1=N[C@@](C)(c2ccccc2)C(=O)N1Nc1ccccc1: 0.0
CC(C)N(C(=O)SCC(Cl)=C(Cl)Cl)C(C)C: 0.0
O=[N+]([O-])c1cc(C(F)(F)F)c(Cl)c([N+](=O)[O-])c1Nc1ncc(C(F)(F)F)cc1Cl: 1.0

Then there is this compound:
(Q) Call for entry COP(=O)(OC)C(O)C(Cl)(Cl)Cl (centres undefined) :
(A) 0.0

* * *

# Read-out: Transforming growth factor beta 1 (TGFb1), TGFB1 (gene 7040)
# ASSAY_NAME: BSK_BE3C_TGFb1: BioMAP Diversity Plus: BE3C Assay for Transforming growth factor beta 1 (TGFb1) Biomarker Activity (AID 2283036)
# CONDITION_PARAMETERS: primary human bronchial epithelial cells; actives raise or lower the signal
Activity calls are given as the source filed them. How the source made its calls: active means hit-call score of the fitted dose curve at least 0.9, where 1 is the maximum; inactive means score below 0.9.
Classes to choose from: true (active), false (inactive)

// below: answered molecules
CCOP(=S)(OCC)Oc1ccc([N+](=O)[O-])cc1: false
CSc1nnc(C(C)(C)C)c(=O)n1N: false
CC[C@H](C)[C@H]1O[C@]2(C=C[C@@H]1C)C[C@@H]1C[C@@H](C/C=C(\C)[C@@H](O[C@H]3C[C@H](OC)[C@@H](O[C@H]4C[C@H](OC)[C@@H](NC)[C@H](C)O4)[C@H](C)O3)[C@@H](C)/C=C/C=C3\CO[C@@H]4[C@H](O)C(C)=C[C@@H](C(=O)O1)[C@]34O)O2: true
O=c1ccc(=O)[nH][nH]1: false
CC(C)=CC1C(C(=O)OCN2C(=O)C3=C(CCCC3)C2=O)C1(C)C (stereo not given): false
Cc1cc(C2CC2)nc(Nc2ccccc2)n1: false

(Q) Call for entry CCCCOC(=O)c1ccccc1C(=O)O :
(A) false

(Q) Call for entry CCOP(=O)(NC(C)C)Oc1ccc(SC)c(C)c1 (stereo not given) :
(A) false

(Q) Call for entry CCCOc1nn(C(=O)NS(=O)(=O)c2ccccc2C(=O)OC)c(=O)n1C :
(A) false

(Q) Call for entry CCc1cccc(CC)c1N(COC)C(=O)CCl :
(A) false

* * *

# Read-out: E-selectin (Homo sapiens)
# ASSAY_NAME: BSK_3C_Eselectin: BioMAP Diversity Plus: 3C Assay for Eselectin Biomarker Activity (AID 2283015)
# CONDITION_PARAMETERS: primary human endothelial cells (HUVEC); actives raise or lower the signal
Activity calls are given as the source filed them. The calls were made as follows: active = hit-call score of the fitted dose curve at least 0.9, where 1 is the maximum; inactive = score below 0.9.
Classes to choose from: class 1 for active, class 0 for inactive

// below: answered compounds
CCOC(=O)COc1cc(-c2nn(C)c(OC(F)F)c2Cl)c(F)cc1Cl: class 0
COP(=O)(OC)SCn1c(=O)oc2cc(Cl)cnc21: class 1
CC(C)N(C(=O)SCC(Cl)=C(Cl)Cl)C(C)C: class 1

(Q) Call for entry Cc1ccn2nc(S(=O)(=O)Nc3c(F)cccc3F)nc2n1 :
(A) class 0

(Q) Call for entry COc1cccc(C(=O)NN(C(=O)c2cc(C)cc(C)c2)C(C)(C)C)c1C :
(A) class 0

(Q) Call for entry CCOP(=S)(OCC)Oc1ccc2c(C)c(Cl)c(=O)oc2c1 :
(A) class 0

* * *

# Read-out: Matrix Metallopeptidase 1 (MMP1), MMP1 (gene 4312)
# ASSAY_NAME: BSK_hDFCGF_MMP1: BioMAP Diversity Plus: hDFCGF Assay for Matrix Metallopeptidase 1 (MMP1) Biomarker Activity (AID 2283064)
# CONDITION_PARAMETERS: primary human foreskin fibroblasts; actives raise or lower the signal
Active and inactive are the calls of the source. The calls were made as follows: active = hit-call score of the fitted dose curve at least 0.9, where 1 is the maximum; inactive = score below 0.9.
REPORTED_METRIC: AC50

Illustrative cases are given below, each with its answer.
C=C(C)[C@H]1Cc2c(ccc3c2O[C@@H]2COc4cc(OC)c(OC)cc4[C@@H]2C3=O)O1: inactive
COP(=O)(OC)C(O)C(Cl)(Cl)Cl (stereo not drawn): inactive
Nc1c(Cl)cc([N+](=O)[O-])cc1Cl: 4.71 µM (active)
CNC(=O)ON=C(C)SC: inactive
CCc1cccc(CC)c1N(COC)C(=O)CCl: inactive
CC(C)N(C(=O)SCC(Cl)=C(Cl)Cl)C(C)C: 31.4 µM (active)

Looking up CCOP(=O)(OCC)Oc1cc(C)nc(C(C)C)n1 , I found its AC50 recorded as 20 µM (active)

Looking up CC1=NNC(=O)N(/N=C/c2cccnc2)C1 , I found its AC50 recorded as inactive

Looking up CSc1nnc(C(C)(C)C)c(=O)n1N , I found its AC50 recorded as inactive

Looking up CSc1nc(NC(C)C)nc(NC(C)C)n1 , I found its AC50 recorded as inactive

Looking up CC(C)[C@H](C(=O)O[C@H](C#N)c1cccc(Oc2ccccc2)c1)c1ccc(Cl)cc1 , I found its AC50 recorded as 3.97 µM (active)

Looking up Cc1cc(C2CC2)nc(Nc2ccccc2)n1 , I found its AC50 recorded as inactive

Looking up C[N+]1(C)CCCCC1 , I found its AC50 recorded as inactive
